- system-name: CaV2.2 (Homo sapiens, UniProt Q00975)
- Construct: expressed in transfected cells; host or cells: unnamed doxycycline-inducible cell line
- Sequence (Q00975 whole entry): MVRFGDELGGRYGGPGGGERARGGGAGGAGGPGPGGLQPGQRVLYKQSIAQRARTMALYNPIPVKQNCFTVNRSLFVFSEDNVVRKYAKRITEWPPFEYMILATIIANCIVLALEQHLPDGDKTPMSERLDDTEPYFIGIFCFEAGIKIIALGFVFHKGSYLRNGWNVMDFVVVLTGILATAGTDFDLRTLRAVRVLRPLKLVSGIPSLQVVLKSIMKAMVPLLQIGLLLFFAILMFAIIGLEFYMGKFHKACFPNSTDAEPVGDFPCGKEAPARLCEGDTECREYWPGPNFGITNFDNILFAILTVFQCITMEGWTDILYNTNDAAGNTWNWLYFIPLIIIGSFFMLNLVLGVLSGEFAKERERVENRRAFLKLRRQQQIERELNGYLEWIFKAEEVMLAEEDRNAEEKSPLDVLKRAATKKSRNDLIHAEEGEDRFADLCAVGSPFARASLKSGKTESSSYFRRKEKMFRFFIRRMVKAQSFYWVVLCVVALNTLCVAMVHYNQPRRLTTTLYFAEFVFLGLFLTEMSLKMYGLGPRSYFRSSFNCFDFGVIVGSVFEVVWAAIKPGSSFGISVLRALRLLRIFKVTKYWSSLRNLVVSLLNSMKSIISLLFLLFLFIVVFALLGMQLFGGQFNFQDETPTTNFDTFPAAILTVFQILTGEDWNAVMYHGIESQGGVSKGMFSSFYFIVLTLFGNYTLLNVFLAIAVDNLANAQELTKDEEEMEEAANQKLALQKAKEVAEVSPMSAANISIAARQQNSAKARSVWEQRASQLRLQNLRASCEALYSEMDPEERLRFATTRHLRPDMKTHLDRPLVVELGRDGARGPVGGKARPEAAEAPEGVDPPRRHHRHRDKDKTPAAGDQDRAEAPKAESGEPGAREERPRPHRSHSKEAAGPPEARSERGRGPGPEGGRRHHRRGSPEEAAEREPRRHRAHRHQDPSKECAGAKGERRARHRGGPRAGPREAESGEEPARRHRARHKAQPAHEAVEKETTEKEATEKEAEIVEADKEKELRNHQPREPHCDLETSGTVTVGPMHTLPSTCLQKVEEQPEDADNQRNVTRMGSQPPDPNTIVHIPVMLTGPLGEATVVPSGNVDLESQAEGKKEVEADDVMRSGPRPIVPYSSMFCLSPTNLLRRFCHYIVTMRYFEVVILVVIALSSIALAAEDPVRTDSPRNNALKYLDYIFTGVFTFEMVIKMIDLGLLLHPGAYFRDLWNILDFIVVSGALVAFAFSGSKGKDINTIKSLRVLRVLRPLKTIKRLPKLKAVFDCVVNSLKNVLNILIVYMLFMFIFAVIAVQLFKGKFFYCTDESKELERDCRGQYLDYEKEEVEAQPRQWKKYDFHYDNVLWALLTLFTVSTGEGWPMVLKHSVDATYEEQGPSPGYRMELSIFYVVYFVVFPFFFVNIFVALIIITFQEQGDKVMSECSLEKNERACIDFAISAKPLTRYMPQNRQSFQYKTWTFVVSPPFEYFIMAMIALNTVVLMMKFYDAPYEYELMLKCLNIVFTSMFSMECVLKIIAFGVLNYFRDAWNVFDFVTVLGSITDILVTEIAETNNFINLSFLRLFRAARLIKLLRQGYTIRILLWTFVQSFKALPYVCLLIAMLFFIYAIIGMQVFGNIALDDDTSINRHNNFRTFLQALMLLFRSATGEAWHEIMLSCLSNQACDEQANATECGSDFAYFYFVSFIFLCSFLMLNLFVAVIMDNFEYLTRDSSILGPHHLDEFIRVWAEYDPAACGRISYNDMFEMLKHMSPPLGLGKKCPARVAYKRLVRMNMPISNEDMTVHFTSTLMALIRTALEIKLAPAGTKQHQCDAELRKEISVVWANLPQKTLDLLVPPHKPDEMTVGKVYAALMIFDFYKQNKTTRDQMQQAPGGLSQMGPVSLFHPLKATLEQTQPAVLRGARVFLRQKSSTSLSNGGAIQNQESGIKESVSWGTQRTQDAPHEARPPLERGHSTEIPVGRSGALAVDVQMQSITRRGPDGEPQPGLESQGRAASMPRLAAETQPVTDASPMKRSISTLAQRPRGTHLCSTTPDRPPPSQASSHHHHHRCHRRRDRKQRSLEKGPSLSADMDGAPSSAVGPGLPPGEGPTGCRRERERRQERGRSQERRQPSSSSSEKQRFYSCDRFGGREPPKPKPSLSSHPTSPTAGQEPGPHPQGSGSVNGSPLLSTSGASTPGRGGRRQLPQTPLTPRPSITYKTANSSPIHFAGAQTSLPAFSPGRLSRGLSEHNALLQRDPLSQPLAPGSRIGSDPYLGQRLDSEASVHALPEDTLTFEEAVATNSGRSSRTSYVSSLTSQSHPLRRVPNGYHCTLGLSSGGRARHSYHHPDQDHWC
- Sequence (P54284 whole entry partner): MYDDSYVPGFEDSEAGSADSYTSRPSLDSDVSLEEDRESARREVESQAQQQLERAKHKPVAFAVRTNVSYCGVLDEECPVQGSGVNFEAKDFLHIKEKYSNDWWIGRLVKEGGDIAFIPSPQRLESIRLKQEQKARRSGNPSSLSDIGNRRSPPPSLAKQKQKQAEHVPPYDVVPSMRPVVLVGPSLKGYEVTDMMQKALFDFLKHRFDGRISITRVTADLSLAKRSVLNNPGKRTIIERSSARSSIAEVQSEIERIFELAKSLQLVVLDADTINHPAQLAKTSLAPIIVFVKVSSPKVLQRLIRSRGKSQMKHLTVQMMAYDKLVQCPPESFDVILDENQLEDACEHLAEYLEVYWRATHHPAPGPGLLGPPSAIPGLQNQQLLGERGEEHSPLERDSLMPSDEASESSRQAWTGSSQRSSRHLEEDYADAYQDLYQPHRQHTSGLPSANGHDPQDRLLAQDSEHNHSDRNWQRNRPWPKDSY
- Sequence (P54289 25-946 partner limits assumed): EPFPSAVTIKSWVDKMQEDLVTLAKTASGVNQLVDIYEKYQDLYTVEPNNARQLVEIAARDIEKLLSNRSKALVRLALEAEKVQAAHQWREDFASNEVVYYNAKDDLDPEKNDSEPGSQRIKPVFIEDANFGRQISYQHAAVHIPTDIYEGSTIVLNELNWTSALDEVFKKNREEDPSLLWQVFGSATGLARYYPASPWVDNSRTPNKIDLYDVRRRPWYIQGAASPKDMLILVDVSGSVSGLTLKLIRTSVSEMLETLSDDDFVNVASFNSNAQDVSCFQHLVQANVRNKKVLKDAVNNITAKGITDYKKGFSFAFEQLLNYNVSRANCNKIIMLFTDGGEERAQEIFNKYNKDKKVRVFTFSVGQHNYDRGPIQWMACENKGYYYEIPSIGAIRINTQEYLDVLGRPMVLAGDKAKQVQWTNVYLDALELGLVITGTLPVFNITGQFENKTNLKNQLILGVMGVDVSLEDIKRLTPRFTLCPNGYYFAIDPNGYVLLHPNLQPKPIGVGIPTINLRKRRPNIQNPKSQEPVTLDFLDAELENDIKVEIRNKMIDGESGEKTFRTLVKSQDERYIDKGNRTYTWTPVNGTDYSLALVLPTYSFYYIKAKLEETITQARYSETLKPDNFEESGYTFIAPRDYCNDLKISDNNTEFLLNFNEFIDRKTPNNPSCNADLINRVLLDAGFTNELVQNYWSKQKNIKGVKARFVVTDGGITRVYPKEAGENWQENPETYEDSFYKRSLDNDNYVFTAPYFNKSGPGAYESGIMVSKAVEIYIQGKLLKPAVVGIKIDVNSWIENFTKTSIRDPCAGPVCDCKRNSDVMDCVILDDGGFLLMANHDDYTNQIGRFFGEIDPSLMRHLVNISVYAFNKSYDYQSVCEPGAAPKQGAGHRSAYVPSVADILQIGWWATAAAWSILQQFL
- Sequence (P54289 947-1103 partner limits assumed): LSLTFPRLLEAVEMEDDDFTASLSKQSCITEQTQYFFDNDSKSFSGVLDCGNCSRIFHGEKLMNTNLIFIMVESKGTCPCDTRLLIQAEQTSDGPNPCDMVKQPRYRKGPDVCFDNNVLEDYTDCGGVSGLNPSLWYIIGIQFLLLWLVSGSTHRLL
- assay-remarks: High-throughput CaV2.2/Kir2.3 FLIPR fluorescent assay
- Format: cell-based
- condition-label: Table 4; Fluo-4 FLIPR; closed or inactivated state not stated; read-out: FLIPR data CaV2.2
pIC50: −log10 of the molar value.
I would appreciate it if you labelled entries true (1) when pIC50 is 6 or higher, otherwise false (0).

Problem: Textbook exercise: given the entry COc1cc(C(=O)NCc2cccc(S(=O)(=O)c3cccc(C(F)(F)F)c3)c2)cc(Cl)n1 [Compound 30] , state whether its pIC50 is greater than or equal to 6.
Result: true (1)

Problem: Check this compound for pIC50 at or above 6: O=C1c2ccc(C(F)(F)F)nc2CN1Cc1cccc(S(=O)(=O)c2cccc(C(F)(F)F)c2)c1 [Compound 57]
Result: true (1)

Problem: Dear colleague, could you confirm whether CS(=O)(=O)c1nc(C(F)(F)F)ccc1C(=O)NCc1ccccc1S(=O)(=O)c1cccc(C(F)(F)F)c1 [Compound 40] has pIC50 at or above 6?
Result: false (0)

Problem: Does pIC50 meet or surpass 6 for N[C@@H](C(=O)NCc1ccc(S(=O)(=O)c2cccc(C(F)(F)F)c2)cc1)c1ccccc1 [Compound 63] ?
Result: true (1)

* * *

- system-name: CaV3.2 (Homo sapiens)
- Construct: expressed in transfected cells; host or cells: unnamed doxycycline-inducible cell line
- assay-remarks: High-throughput CaV3.2/Kir2.3 T-type FLIPR fluorescent assay
- Type: cell-based
- condition-label: Table 4; Fluo-4 FLIPR; closed or inactivated state not stated
- Method: Cells were plated in 384-well, clear-bottom, black-walled, poly-D-lysine coated plates (Becton Dickinson, Franklin Lake, N.J.) 2 days prior to use in the FLIPR assay. […] NaOH. […] A change in the Fluo-4 fluorescence signal was assessed using FLIPR^TETRA™ instrument (Molecular Devices, Sunnyvale, Calif.) for 3 minutes following the elevation of extracellular KCl using an illumination wavelength of 470-495 nm with emissions recorded at 515-575 nm. […] Data are expressed as mean and standard deviation (SD).
Provide the recorded log10(IC50) for the entries that follow.
Would you kindly interpret these values as log10 of IC50 expressed in nM?

Problem: # return recorded log10(IC50) for input O=C1c2ccc(C(F)(F)F)nc2CN1Cc1ccccc1S(=O)(=O)c1cccc(C(F)(F)F)c1 [Compound 58]
Result: 3.17

Problem: Assign log10(IC50) to the following record: Cn1nc(C(F)(F)F)cc1C(=O)NCc1ccc(S(=O)(=O)c2cccc(C(F)(F)F)c2)cc1 [Compound 7]
Result: 2.71

Problem: Determine its reported log10(IC50): O=C(NCc1ccc(S(=O)(=O)c2cccc(C(F)(F)F)c2)cc1)c1ccc(C(F)(F)F)nc1 [Compound 3]
Result: 2.81

Problem: Consider the compound CS(=O)(=O)c1cc(C(=O)NCc2ccccc2S(=O)(=O)c2cccc(C(F)(F)F)c2)cc(C(F)(F)F)n1 [Compound 42] and give its recorded log10(IC50).
Result: 3.51

Problem: Fill in reported log10(IC50) for this entry: Cn1nc(C(F)(F)F)cc1C(=O)NCc1cccc(S(=O)(=O)c2cccc(C(F)(F)F)c2)c1 [Compound 22]
Result: 2.81

Problem: Return the recorded log10(IC50) value; entry: CS(=O)(=O)c1cc(C(F)(F)F)ccc1C(=O)NCc1ccc(S(=O)(=O)c2cccc(C(F)(F)F)c2)cc1 [Compound 11]
Result: 2.77

Problem: Please supply the value of reported log10(IC50) for the item O=C1c2ccc(C(F)(F)F)nc2CN1Cc1ccc(S(=O)(=O)c2cccc(C(F)(F)F)c2)cc1 [Compound 56]
Result: 3.42

Problem: Supply reported log10(IC50) belonging to this compound: CS(=O)(=O)c1nc(C(F)(F)F)ccc1C(=O)NCc1ccc(S(=O)(=O)c2cccc(C(F)(F)F)c2)cc1 [Compound 6]
Result: 3.18

Problem: Please list log10(IC50) recorded for the compound O=C(NCc1ccc(S(=O)(=O)c2cccc(C(F)(F)F)c2)cn1)c1ccc(Cl)c(F)c1 [Compound 88]
Result: 2.91

Problem: In one line, give reported log10(IC50) of the entry CS(=O)(=O)c1cc(C(F)(F)F)ccc1C(=O)NCc1ccccc1S(=O)(=O)c1cccc(C(F)(F)F)c1 [Compound 47] .
Result: 3.33

Problem: Give the measured log10(IC50) for NC1(C(=O)NCc2ccc(S(=O)(=O)c3cccc(C(F)(F)F)c3)cc2)CCC2(CC1)OCCO2 [Compound 83]
Result: 3.96

Problem: Give the value of log10(IC50) reported for the following: O=C(NCc1ccc(S(=O)(=O)c2cccc(C(F)(F)F)c2)cc1)c1ccc(C(F)(F)F)cn1 [Compound 4]
Result: 2.58

Problem: Supply reported log10(IC50) belonging to this compound: CS(=O)(=O)c1cc(C(=O)NCc2ccc(S(=O)(=O)c3cccc(C(F)(F)F)c3)cc2)cc(C(F)(F)F)n1 [Compound 10]
Result: 2.99

Problem: Annotate the compound CC(C)S(=O)(=O)c1cc(C(F)(F)F)cnc1C(=O)NCc1ccc(S(=O)(=O)c2cccc(C(F)(F)F)c2)cc1 [Compound 33] with its measured log10(IC50).
Result: 3.00

Problem: Give the reported value of log10(IC50) for this record: CC(C)S(=O)(=O)c1cc(C(F)(F)F)cnc1C(=O)NCc1ccc(S(=O)(=O)c2cccc(C(F)(F)F)c2)cn1 [Compound 96]
Result: 3.33

* * *

- system-name: CaV3.2 (Homo sapiens, UniProt O95180)
- Construct: expressed in transfected cells; host or cells: unnamed doxycycline-inducible cell line
- assay-remarks: High-throughput CaV3.2/Kir2.3 T-type FLIPR fluorescent assay
- Type: cell-based
- condition-label: Table 5; Fluo-4 FLIPR; closed or inactivated state not stated
assay-endpoint: IC50 (µM)
Answer format: numeric, µM implied, no suffix.

Problem: Give the reported IC50 for this compound. COc1ccc(C(=O)NCC(C)(C)S(=O)(=O)c2cccc(C(F)(F)F)c2)cc1Cl
Result: 3.99

Problem: Complete the entry with IC50 for CC(C)(CCNC(=O)[C@@H]1C[C@@H](C2CCCCC2)CN1)S(=O)(=O)c1cccc(C(F)(F)F)c1
Result: 3.21

Problem: Output IC50 of CC(C)(CNC(=O)c1ccnc(N2CCCC2)c1)S(=O)(=O)c1cccc(C(F)(F)F)c1
Result: 8.22

Problem: Complete the entry with IC50 for CC(C)(C(=O)N1CCN(c2cccc(C(F)(F)F)c2)CC1)S(=O)(=O)c1cccc(C(F)(F)F)c1
Result: 3.63

Problem: # return recorded IC50 for input CC(C)(C(=O)Nc1ccc(Oc2ccc(F)c(Cl)c2)nc1)S(=O)(=O)c1cccc(OC(F)(F)F)c1
Result: 1.15

Problem: Entry CC(C)(C(=O)Nc1ccc(Oc2ccc(C(F)(F)F)cn2)nc1)S(=O)(=O)c1cccc(OC(F)(F)F)c1 needs its IC50 filled in; supply it.
Result: 3.01

Problem: Please list IC50 recorded for the compound CC(C)(C(=O)Nc1ccc(Oc2ccc(C(F)(F)F)nc2)nc1)S(=O)(=O)c1cccc(OC(F)(F)F)c1
Result: 1.64

Problem: Answer with the recorded IC50 for the compound listed here: CC(C)(C(=O)N1CCC(c2ccc(C(F)(F)F)cc2)CC1)S(=O)(=O)c1cccc(C(F)(F)F)c1
Result: 2.44

Problem: Provide only the value of recorded IC50 for COc1ccc(S(=O)(=O)N2CCOCC2)cc1C(=O)NCC(C)(C)S(=O)(=O)c1cccc(C(F)(F)F)c1
Result: 9.68

Problem: Identify measured IC50 associated with CC(C)(C(=O)NCc1ccc(S(=O)(=O)c2cccc(C(F)(F)F)c2)cc1)S(=O)(=O)c1cccc(C(F)(F)F)c1
Result: 0.63

Problem: Please report the measured IC50 for CC(C)(C(=O)NCc1cccc(S(=O)(=O)c2cccc(C(F)(F)F)c2)c1)S(=O)(=O)c1cccc(C(F)(F)F)c1
Result: 1.2

Problem: State, in one line, measured IC50 of CC(C)(CNC(=O)c1cncc(C(F)(F)F)c1)S(=O)(=O)c1cccc(C(F)(F)F)c1
Result: 5.34

Problem: Entry CC(C)(C(=O)NCc1cccc(C(F)(F)F)c1)S(=O)(=O)c1cccc(C(F)(F)F)c1 needs its IC50 filled in; supply it.
Result: 5.62

Problem: Specify IC50 for CC(C)(C(=O)Nc1ccc(Oc2ccc(F)c(C(F)(F)F)c2)nc1)S(=O)(=O)c1cccc(OC(F)(F)F)c1 and stop.
Result: 4.31

Problem: Supply measured IC50 of CC(C)(CCNC(=O)C(C)(C)S(=O)(=O)c1cccc(C(F)(F)F)c1)S(=O)(=O)c1cccc(C(F)(F)F)c1 in your reply.
Result: 1.02

* * *

- system-name: CaV3.2 (Homo sapiens, UniProt O95180)
- Construct: expressed in transfected cells; host or cells: unnamed doxycycline-inducible cell line
- assay-remarks: High-throughput CaV3.2/Kir2.3 T-type FLIPR fluorescent assay
- Assay type: cell-based
- condition-label: Table 4; Fluo-4 FLIPR; closed or inactivated state not stated
Could you please report measured IC50 for the items listed next?
The answer is to be given in µM; state only the numeric part.

Problem: Hello, please tell me recorded IC50 for this one: N[C@@H]1CCCC[C@H]1C(=O)NCc1ccc(S(=O)(=O)c2cccc(C(F)(F)F)c2)cc1
Result: 4.56

Problem: Give IC50 for the following molecule: CC(C)S(=O)(=O)c1cc(C(F)(F)F)cnc1C(=O)NCc1ccccc1S(=O)(=O)c1cccc(C(F)(F)F)c1
Result: 1.03

Problem: Consider the molecule O=C(NCc1ccccc1S(=O)(=O)c1cccc(C(F)(F)F)c1)c1ccc(Cl)c(F)c1 . State its measured IC50.
Result: 0.77

Problem: Output IC50 of CC(C)(C(=O)NCc1ccc(S(=O)(=O)c2cccc(C(F)(F)F)c2)cn1)S(=O)(=O)c1cccc(C(F)(F)F)c1
Result: 1.26

Problem: Supply recorded IC50 for CS(=O)(=O)c1nc(C(F)(F)F)ccc1C(=O)NCc1cccc(S(=O)(=O)c2cccc(C(F)(F)F)c2)c1 here.
Result: 2.68

Problem: Note IC50 for the molecule shown: CS(=O)(=O)c1cc(C(F)(F)F)cnc1C(=O)NCc1ccccc1S(=O)(=O)c1cccc(C(F)(F)F)c1
Result: 3.38

Problem: Consider the molecule O=C(NCc1ccc(S(=O)(=O)c2cccc(C(F)(F)F)c2)cc1)c1ccc(Cl)c(F)c1 and give its recorded IC50.
Result: 0.62
